test system: DMS 114 tumor spheroids, viability % test/control; test: Anticancer human tumor DMS 114 cell line growth inhibition; conditions: second compound 0.0003 µM; first compound 10 µM; hits give low values; spheroids with HUVEC and MSC;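 further: luminescence used as a proxy for viable cells; spheroids exposed to compounds for 7 days before read-out; 100% = DMSO vehicle control viability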
endpoint.label: viability, T/C

molecule	measured.value
CC(C)n1c(=O)n(C)c2cnc3cc(F)c(-c4ccc(OCCCN5CCCCC5)nc4)cc3c21 + COc1cc2c(cc1O)CCNC21CSC2c3c(OC(C)=O)c(C)c4c(c3C(COC1=O)N1C(O)C3Cc5cc(C)c(OC)c(O)c5C(C21)N3C)OCO4	8.07%
[2H]c1nc(C)nc([2H])c1-c1cc(NC[C@@H](C)c2cccc3c(C(=O)NC)ccnc23)ncn1 + COc1cc2c(cc1O)CCNC21CSC2c3c(OC(C)=O)c(C)c4c(c3C(COC1=O)N1C(O)C3Cc5cc(C)c(OC)c(O)c5C(C21)N3C)OCO4	42.4%
COc1cc(C)[nH]c(=O)c1CN1CCc2c(Cl)cc(C(OC)C3COC3)c(Cl)c2C1=O (stereo unspecified) + COc1cc2c(cc1O)CCNC21CSC2c3c(OC(C)=O)c(C)c4c(c3C(COC1=O)N1C(O)C3Cc5cc(C)c(OC)c(O)c5C(C21)N3C)OCO4	26.6%
COc1ccc([C@@H](O)c2cc(-c3ncnc4cc(N5CCOCC5)ccc34)c(F)cc2Cl)nn1 + COc1cc2c(cc1O)CCNC21CSC2c3c(OC(C)=O)c(C)c4c(c3C(COC1=O)N1C(O)C3Cc5cc(C)c(OC)c(O)c5C(C21)N3C)OCO4	2.36%
CC1COCCN1c1cc(-c2ccnn2C)c2ccnc(-c3ccn[nH]3)c2n1 (stereo unspecified) + COc1cc2c(cc1O)CCNC21CSC2c3c(OC(C)=O)c(C)c4c(c3C(COC1=O)N1C(O)C3Cc5cc(C)c(OC)c(O)c5C(C21)N3C)OCO4	5.28%

Okay, next one:
stdin: Quick check: viability, T/C of Cc1cc(C)c(CNC(=O)c2cc(-c3ccc(CN4CCOCC4)cc3)cc3c2cnn3C2CCCC2)c(=O)[nH]1 + COc1cc2c(cc1O)CCNC21CSC2c3c(OC(C)=O)c(C)c4c(c3C(COC1=O)N1C(O)C3Cc5cc(C)c(OC)c(O)c5C(C21)N3C)OCO4 ?
stdout: 35.6%
